test: amyloid nucleation score (Sup35N fusion, yeast selection) (log enrichment); library NNK3; higher = more nucleation; inactive = no reads after selection;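 note: zero at mode of non-aggregating sequences after 7 days selection at 30°C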

>  <substance>
KNWYKVMSRYYKC

>  <amyloid nucleation score>
0.338

$$$$
>  <substance>
VERSSLVEWSCDRVSKWYFV

>  <amyloid nucleation score>
0.298

$$$$
>  <substance>
PVNNIYGRLPGLLKLEKVSS

>  <amyloid nucleation score>
inactive

$$$$
>  <substance>
RSEVRR

>  <amyloid nucleation score>
-0.013

$$$$
>  <substance>
MTRCLSFWTRSQVLYFCWKL

>  <amyloid nucleation score>
inactive

$$$$
>  <substance>
IGHGYMVDRWILRVVMVVAL

>  <amyloid nucleation score>
inactive

$$$$
>  <substance>
YRGLGRDSHTHCRNHVLLTL

>  <amyloid nucleation score>
inactive

$$$$
>  <substance>
SDTLYFVCSVTWQRFYKMID

>  <amyloid nucleation score>
inactive

$$$$
>  <substance>
DMISFKMLQYCWCSSCVFSH

>  <amyloid nucleation score>
2.18

$$$$
>  <substance>
RLSSLPHCVIM

>  <amyloid nucleation score>
inactive

$$$$
>  <substance>
TAQFDNSCSGLQHVVVNK

>  <amyloid nucleation score>
inactive

$$$$
>  <substance>
VAWAASARRHMYIPDRDSCA

>  <amyloid nucleation score>
inactive

$$$$
>  <substance>
SVSARSRRLWGSMRIAVTVF

>  <amyloid nucleation score>
inactive

$$$$
>  <substance>
KVVARYRRKVCYNWHISEEK

>  <amyloid nucleation score>
inactive

$$$$
>  <substance>
HYADRTAWPSACASLYSHAL

>  <amyloid nucleation score>
inactive

$$$$
>  <substance>
ISLFFRICY

>  <amyloid nucleation score>
0.397

$$$$
